tested on: ADP-induced platelet aggregation; assay: Inhibitory activity to the ADP-induced platelet aggregation measured by the platelet-counting-method, rat PRP; type: cell-based; settings: 5 × 10^-4 mol. conc., platelet counting (Coulter Counter)
Value type: Rate of inhibition of the aggregation

Any idea what its Rate of inhibition of the aggregation is? The compound is CCOC(=O)COc1ccc2c(C)c(CCN(CC)CC)c(=O)oc2c1
15.95 ± 1.87%

# query: Rate of inhibition of the aggregation of entry COc1ccc2c(c1)c(CC(=O)O)c(C)n2C(=O)c1ccc(Cl)cc1
64.66 ± 1.76%

Reported Rate of inhibition of the aggregation for CC(=O)Oc1ccccc1C(=O)O : what is it?
-7.11 ± 0.98%

Quick check: Rate of inhibition of the aggregation of O=C1c2ccccc2SC12CC2 ?
80.98 ± 2.92%

====

tested on: primary aggregation of platelets by ADP; experiment: Inhibitory activity to the (primary) platelet aggregation induced by ADP, aggregation meter, rat PRP; assay type: cell-based; conditions: 1.0 × 10^-4 mol. conc., average of 5 cases
Value type: Rate of inhibition of the primary aggregation of platelets by ADP (%)
Enter your answer as a number in %; do not include the unit.

// query Rate of inhibition of the primary aggregation of platelets by ADP value for entry COc1ccc2c(c1)c(CC(=O)O)c(C)n2C(=O)c1ccc(Cl)cc1
8.0

GET /values?readout=Rate of inhibition of the primary aggregation of platelets by ADP&item= CC(=O)Oc1ccccc1C(=O)O
10.6

What measured Rate of inhibition of the primary aggregation of platelets by ADP goes with CC(C(=O)O)c1cccc(C(=O)c2ccccc2)c1 (stereo not shown) ?
19.6

For the compound shown here, O=C1c2ccccc2SC12CC2 , give the reported Rate of inhibition of the primary aggregation of platelets by ADP.
82.3

====

I'd appreciate it if you could supply Rate of inhibition of the aggregation values for the items below.
tested on: ADP-induced platelet aggregation; assay: Inhibitory activity to the ADP-induced platelet aggregation measured by the platelet-counting-method, rat PRP; format: cell-based; conditions: 1 × 10^-4 mol. conc., platelet counting (Coulter Counter)
Write the number in % without appending the unit.

Which Rate of inhibition of the aggregation value belongs to COc1ccc2c(c1)c(CC(=O)O)c(C)n2C(=O)c1ccc(Cl)cc1 ?
0.85

Give its Rate of inhibition of the aggregation value. Item: CCOC(=O)COc1ccc2c(C)c(CCN(CC)CC)c(=O)oc2c1
12.75

Need Rate of inhibition of the aggregation of O=C1c2ccccc2SC12CC2 , thanks.
16.09

Name the reported Rate of inhibition of the aggregation value associated with the compound CC(=O)Oc1ccccc1C(=O)O
-15.81

====

I'd appreciate it if you could supply Rate of inhibition of the primary aggregation of platelets by ADP values for the items below.
system: primary aggregation of platelets by ADP; assay: Inhibitory activity to the (primary) platelet aggregation induced by ADP, aggregation meter, rat PRP; assay type: cell-based; details: 2.5 × 10^-4 mol. conc., average of 5 cases
Entry rule: numbers only, all in %.

Find the measured Rate of inhibition of the primary aggregation of platelets by ADP: item COc1ccc2c(c1)c(CC(=O)O)c(C)n2C(=O)c1ccc(Cl)cc1 [Indomethacin] , target or system primary aggregation of platelets by ADP.
31.5

Identify the measured Rate of inhibition of the primary aggregation of platelets by ADP of CC(C(=O)O)c1cccc(C(=O)c2ccccc2)c1 (stereo not shown) [Ketoprofen] for primary aggregation of platelets by ADP.
36.0

Write down the reported Rate of inhibition of the primary aggregation of platelets by ADP of CC(=O)Oc1ccccc1C(=O)O [Aspirin] , test system: primary aggregation of platelets by ADP.
28.8

Item O=C1c2ccccc2SC12CC2 [Compound (I)] with primary aggregation of platelets by ADP - Rate of inhibition of the primary aggregation of platelets by ADP?
96.9
